# Test system: Sam68 (KHDRBS1)
# Test Method Notes: Sam68 small-molecule binders, primary screen, biochemical, small-molecule microarray, 635 nm fluorescence (AID 1125);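 note: score merges 667 nm channel intensity with signal to noise over triplicate slides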
# Run Parameters: small-molecule microarray binding, higher = more signal
Class boundaries, taken from values of composite z-score, are as follows: LOW (below 0.7), MID (0.7 to below 1), HIGH (1 or more)

Some solved cases for reference:
{"Compound": "C=CCNC(=O)[C@H]1[C@@H]2C(=O)O[C@@H](c3ccccc3)[C@@H](c3ccccc3)N2[C@@H](c2ccccc2OCCO)[C@]12C(=O)Nc1ccc(C#CC3=CCCCC3)cc12", "Target Or System": "Sam68 (KHDRBS1)", "Class": "HIGH"}
{"Compound": "COCCOC(=O)N1C(=O)[C@@]2(c3cc(C#CC4=CCCCC4)ccc31)[C@H](C(=O)N1CCc3cc(OC)c(OC)cc3C1)[C@H]1C(=O)O[C@H](c3ccccc3)[C@H](c3ccccc3)N1[C@@H]2c1ccc(OCCO)cc1", "Target Or System": "Sam68 (KHDRBS1)", "Class": "HIGH"}
{"Compound": "O=C1OCCC/C=C\\[C@H]2OC34C=CCN(Cn5nnc6ccccc65)C(=O)[C@H]3N(CCO)C(=O)[C@@H]4C12 (some centres undefined)", "Target Or System": "Sam68 (KHDRBS1)", "Class": "LOW"}
{"Compound": "CCCCc1cn(C[C@H](Cc2ccccc2)NC(=O)N[C@H](CO)CCc2oc(C(C)=O)c(C(=O)OC)c2C(=O)OC)nn1", "Target Or System": "Sam68 (KHDRBS1)", "Class": "HIGH"}

Lab note: which band did C=CCN(Cc1ccccc1)C(=O)C(c1cccs1)N(CCOCCO)C(=O)/C=C\C(=O)O (centres undefined) land in?
LOW

Lab note: which band did O=C1OCCC/C=C\[C@H]2OC34C=CCN(CCN5CCOCC5)C(=O)[C@H]3N(CCCO)C(=O)[C@@H]4C12 (some centres undefined) land in?
LOW

Data provenance is PubChem BioAssay.
